PROCEDURE_SUMMARY: self-splicing fitness, log relative to wild type (ln ratio); higher = more splicing; Tetrahymena group I intron in knt gene, E. coli kanamycin selection, DiMSum; sequences stand for … in CUCUCU…GGAGGGAAAAGUUAUCAGGCAUGCACCUGGUAGCUAGUCUUUAAACCAAUAGAUUGCAUCGGUUUAAAAGGCAAGACCGUCAAAUUGCGGGAAAGGGGUCAACAGCCGUUCAGUACCAAGUCUCAGGGGAAACUUUGAGAUGGCCUUGCAAAGGGUAUGGUAAUAAGCUGACGGACAUGGUCCUAACCACGCAGCCAAGUCCUAAGUCAACAGAUCUUCUGUUGAUAUGGAUGCAGUUCACAGACUAAAUGUCGGUCGGGGAAGAUGUAUUCUUCUCAUAAGAUAUAGUCGGACCUCUCCUUAAUGGGAGCUAGCGGAUGAAGUGAUGCAACACUGGAGCCGCUGGGAACUAAUUUGUAUGCGAAAGUAUAUUGAUUAGUUUUGGAGUACUCGUGGUCG;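 further: selection with 25 µg/mL kanamycin versus none on LB agar overnight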
RECORDED_CONDITIONS: 30 °C
MEASURED_PARAMETER: self-splicing fitness (ln)

Completed entries (count: 2):
GUCUAGCAAUAUUACGACAC -0.746
AGUCAGCAAUAUUACGUCCC -1.52

Hi! Can you tell me self-splicing fitness (ln) for each of these sequences?
1. AGGCAGCAAUAUUACGUAGA
2. CCGUAGCAAUAUUACGUUUC
3. CUAAAGCAAUAUUACGCAGU
4. CUGUAGCAAUAUUACGUGCC
5. ACAAAGCAAUAUUACGUUUG
6. UAGGAGCAAUAUUACGUGCG
7. CCCGAGCAAUAUUACGUACA
8. ACCCAGCAAUAUUACGCCAA

**Result**
[-2.33, -3.05, -3.13, -3.49, -2.98, -2.89, -2.87, -2.43]

// batch mode: one self-splicing fitness (ln) value per listed entry
1. UAGCAGCAAUAUUACGUAUU
2. UCGGAGCAAUAUUACGGCCG
3. ACAAAGCAAUAUUACGUUAU
4. CAGUAGCAAUAUUACGUUAG

**Result**
-3.99
-1.49
-2.81
-1.32

###

PROCEDURE_SUMMARY: self-splicing fitness, log relative to wild type (ln ratio); higher = more splicing; Tetrahymena group I intron in knt gene, E. coli kanamycin selection, DiMSum; sequences stand for … in CUCUCU…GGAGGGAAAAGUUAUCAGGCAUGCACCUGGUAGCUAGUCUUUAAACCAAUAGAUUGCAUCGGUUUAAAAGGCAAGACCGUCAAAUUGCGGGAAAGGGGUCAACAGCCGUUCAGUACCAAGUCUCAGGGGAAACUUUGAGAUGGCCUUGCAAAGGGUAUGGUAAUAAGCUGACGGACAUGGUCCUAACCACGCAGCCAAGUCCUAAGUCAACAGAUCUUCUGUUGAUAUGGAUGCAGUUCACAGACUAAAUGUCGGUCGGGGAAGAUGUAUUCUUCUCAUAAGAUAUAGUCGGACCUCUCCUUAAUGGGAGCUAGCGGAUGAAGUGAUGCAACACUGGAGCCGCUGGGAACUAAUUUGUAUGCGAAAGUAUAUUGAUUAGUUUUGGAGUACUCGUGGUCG
RECORDED_CONDITIONS: 30 °C
MEASURED_PARAMETER: self-splicing fitness (ln)
Answers are plain numbers.

Field: example entries. Status: answers known.
UAAGAGCAAUAUUACGCCGG -2.97
AAUGAGCAAUAUUACGAUUG -1.99
UCGGAGCAAUAUUACGUUCG -1.19
CUGCAGCAAUAUUACGGGGA -2.72

Please give self-splicing fitness (ln), item by item, for the list that follows.
1. UGGGAGCAAUAUUACGCAUA
2. GUUCAGCAAUAUUACGCGCU

**Result**
1. -1.98
2. -2.34

###

PROCEDURE_SUMMARY: self-splicing fitness, log relative to wild type (ln ratio); higher = more splicing; Tetrahymena group I intron in knt gene, E. coli kanamycin selection, DiMSum; sequences stand for … in CUCUCU…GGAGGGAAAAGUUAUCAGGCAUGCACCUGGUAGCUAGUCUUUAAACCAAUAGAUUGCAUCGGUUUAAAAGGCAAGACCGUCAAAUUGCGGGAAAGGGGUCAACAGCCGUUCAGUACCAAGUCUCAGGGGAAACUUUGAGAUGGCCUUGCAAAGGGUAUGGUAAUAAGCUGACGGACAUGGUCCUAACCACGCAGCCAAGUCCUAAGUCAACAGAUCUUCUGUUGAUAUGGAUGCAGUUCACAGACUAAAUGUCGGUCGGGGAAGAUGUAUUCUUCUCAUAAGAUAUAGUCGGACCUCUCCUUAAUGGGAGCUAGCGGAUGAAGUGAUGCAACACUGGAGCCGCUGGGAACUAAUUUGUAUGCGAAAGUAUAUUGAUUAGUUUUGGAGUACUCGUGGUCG
RECORDED_CONDITIONS: 37 °C
MEASURED_PARAMETER: self-splicing fitness (ln)
One number for each entry.

Below: 5 sequences and their reported self-splicing fitness (ln).
CUAGAGCAAUAUUACGAAGA -1.94
CGUAAGCAAUAUUACGACGG -0.0967
CCGAAGCAAUAUUACGACCU -2.3
AGUAAGCAAUAUUACGGUAA -1.68
CAGCAGCAAUAUUACGAUGG 0.177

# return self-splicing fitness (ln) for each item in the list
1. GUCAAGCAAUAUUACGCACC
2. UCCAAGCAAUAUUACGGCGC
3. GUACAGCAAUAUUACGAUGC
4. CCUUAGCAAUAUUACGUAAG
5. AAUAAGCAAUAUUACGUCUG

**Result**
1: -0.99; 2: -2.5; 3: -1.06; 4: -0.938; 5: -0.973

// each sequence listed below needs its self-splicing fitness (ln)
1. GUCGAGCAAUAUUACGCGCA
2. AAUAAGCAAUAUUACGGGUA

**Result**
[-1.17, -1.32]

###

PROCEDURE_SUMMARY: self-splicing fitness, log relative to wild type (ln ratio); higher = more splicing; Tetrahymena group I intron in knt gene, E. coli kanamycin selection, DiMSum; sequences stand for … in CUCUCU…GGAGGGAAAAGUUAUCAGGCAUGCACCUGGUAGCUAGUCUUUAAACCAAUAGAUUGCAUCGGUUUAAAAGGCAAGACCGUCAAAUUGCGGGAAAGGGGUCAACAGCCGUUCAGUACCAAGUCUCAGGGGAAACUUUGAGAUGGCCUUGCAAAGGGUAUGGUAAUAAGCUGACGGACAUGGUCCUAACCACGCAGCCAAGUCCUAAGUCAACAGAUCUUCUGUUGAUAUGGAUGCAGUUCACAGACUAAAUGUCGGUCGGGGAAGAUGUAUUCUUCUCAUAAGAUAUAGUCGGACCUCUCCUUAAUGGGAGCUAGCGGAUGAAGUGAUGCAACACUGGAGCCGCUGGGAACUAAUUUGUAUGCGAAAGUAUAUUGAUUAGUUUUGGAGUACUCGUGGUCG
RECORDED_CONDITIONS: 30 °C
MEASURED_PARAMETER: self-splicing fitness (ln)
One number for each entry.

Known results for sequences:
UUCGAGCAAUAUUACGCGGA -2.94
UUGUAGCAAUAUUACGUUGA -2.95
AGGAAGCAAUAUUACGUGGA -3.05
AAGAAGCAAUAUUACGUGGA -2.97
GAAUAGCAAUAUUACGCGUC -1.98
GAUCAGCAAUAUUACGGUGC -2.03

Your task in this section: give self-splicing fitness (ln) for each listed record.
1. UCACAGCAAUAUUACGCAUU
2. AAGGAGCAAUAUUACGUGCA

**Result**
1. -2.93
2. -3.03

###

Please provide measured self-splicing fitness (ln) for the entries that follow.
PROCEDURE_SUMMARY: self-splicing fitness, log relative to wild type (ln ratio); higher = more splicing; Tetrahymena group I intron in knt gene, E. coli kanamycin selection, DiMSum; sequences stand for … in CUCUCU…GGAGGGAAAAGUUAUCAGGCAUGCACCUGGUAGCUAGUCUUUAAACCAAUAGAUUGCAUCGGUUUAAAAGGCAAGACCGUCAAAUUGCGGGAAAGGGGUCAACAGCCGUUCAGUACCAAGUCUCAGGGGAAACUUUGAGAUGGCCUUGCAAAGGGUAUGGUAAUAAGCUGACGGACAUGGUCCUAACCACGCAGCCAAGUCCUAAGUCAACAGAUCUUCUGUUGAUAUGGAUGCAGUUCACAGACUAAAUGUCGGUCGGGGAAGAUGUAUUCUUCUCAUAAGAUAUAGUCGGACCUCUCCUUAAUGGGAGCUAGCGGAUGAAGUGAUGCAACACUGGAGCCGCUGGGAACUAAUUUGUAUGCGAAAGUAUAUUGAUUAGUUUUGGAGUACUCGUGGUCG
RECORDED_CONDITIONS: 30 °C
Give bare numbers.

Example cases with answers are listed next.
UGCCAGCAAUAUUACGAUGC -3.57
CCGGAGCAAUAUUACGAGAU -3.24

# return self-splicing fitness (ln) for each item in the list
1. GACAAGCAAUAUUACGGGUU
2. GCUAAGCAAUAUUACGAUCU
3. CCCCAGCAAUAUUACGGGAC
4. GUAGAGCAAUAUUACGCUCC
5. AUACAGCAAUAUUACGGACU
6. UACAAGCAAUAUUACGUUUA

**Result**
1. -3.38
2. -0.886
3. -3.88
4. -1.72
5. -0.732
6. -1.33

Source listed as the supplement of paper PMC7877785.
